test.system: T1, ScPif1p R324N (Saccharomyces cerevisiae, UniProt P07271 237-780, R324N)
T1 sequence: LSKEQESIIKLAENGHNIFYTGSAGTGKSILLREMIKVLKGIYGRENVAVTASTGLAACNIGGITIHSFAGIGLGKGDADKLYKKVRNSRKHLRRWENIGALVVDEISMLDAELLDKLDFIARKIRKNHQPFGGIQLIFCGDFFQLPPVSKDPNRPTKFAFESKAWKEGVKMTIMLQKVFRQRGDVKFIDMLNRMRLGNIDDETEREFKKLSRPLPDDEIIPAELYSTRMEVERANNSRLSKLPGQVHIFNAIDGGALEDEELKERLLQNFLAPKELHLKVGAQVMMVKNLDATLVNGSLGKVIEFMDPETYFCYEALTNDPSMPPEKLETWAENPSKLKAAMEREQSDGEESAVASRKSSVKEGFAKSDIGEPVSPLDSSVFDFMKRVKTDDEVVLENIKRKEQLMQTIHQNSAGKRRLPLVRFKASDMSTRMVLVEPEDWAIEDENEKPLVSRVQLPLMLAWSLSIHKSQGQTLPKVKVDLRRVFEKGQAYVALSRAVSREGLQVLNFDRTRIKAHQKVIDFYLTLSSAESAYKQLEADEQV
assay.protocol: fluorescence anisotropy
value.type: Kd (nM)
Report the figure in nM without appending any unit label.

Example results:
AGGGTGGGTGGGTGGGT (structured_DNA) [F-G417] | 87.9
GTGTGTGTGGTG (ssDNA) [GR12] | 11.4

Proceeding to the next binder to report its Kd.
## Input Name the recorded Kd of the item dsDNA16bp (dsDNA) DNA 1: CTCTGCTCGACGGATT DNA 2: AATCCGTCGAGCAGAG in your answer.
## Output 57.9
